# experimental.protocol: Stability of the compound at 136 uM after 4 hrs in presence of aureolysin
# Format: ADME

# chemical.string, Stability
data = [
    ("CC[C@@H](C)[C@@H](NC(=O)[C@H](CCCNC(=N)N)NC(=O)[C@H](CCC(N)=O)NC(=O)[C@@H](NC(=O)[C@H](NC(=O)[C@H](CCCNC(=N)N)NC(=O)[C@H](CCCCN)NC(=O)[C@@H](Cc1ccccc1)NC(=O)[C@H](CCC(=O)O)NC(C)=O)[C@H](C)CC)C(C)C)C(=O)N[C@@H](CCCCN)C(=O)N[C@@H](CC(=O)O)C(=O)N[C@H](Cc1ccccc1)C(=O)N[C@@H](CC(C)C)C(=O)N[C@@H](CCCNC(=N)N)C(=O)N[C@@H](CC(N)=O)C(=O)N[C@@H](CC(C)C)C(=O)N[C@H](C(N)=O)C(C)C", "Stable"),
    ("CC[C@@H](C)[C@@H](NC(=O)[C@H](CCCNC(=N)N)NC(=O)[C@H](CCC(N)=O)NC(=O)[C@@H](NC(=O)[C@H](NC(=O)[C@H](CCCNC(=N)N)NC(=O)[C@H](CCCCN)NC(=O)[C@@H](Cc1ccccc1)NC(=O)[C@@H](N)CCC(=O)O)[C@H](C)CC)C(C)C)C(=O)N[C@@H](CCCCN)C(=O)N[C@@H](CC(=O)O)C(=O)N[C@H](Cc1ccccc1)C(=O)N[C@@H](CC(C)C)C(=O)N[C@@H](CCCNC(=N)N)C(=O)N[C@@H](CC(N)=O)C(=O)N[C@@H](CC(C)C)C(=O)N[C@H](C(=O)O)C(C)C", "Stable"),
    ("CC[C@H](C)[C@H](NC(=O)[C@H](CCCNC(=N)N)NC(=O)[C@H](CCC(N)=O)NC(=O)[C@@H](NC(=O)[C@@H](NC(=O)[C@H](CCCNC(=N)N)NC(=O)[C@H](CCCCN)NC(=O)[C@H](Cc1ccccc1)NC(=O)[C@@H](N)CCC(=O)O)[C@@H](C)CC)C(C)C)C(=O)N[C@@H](CCCCN)C(=O)N[C@@H](CC(=O)O)C(=O)N[C@@H](Cc1ccccc1)C(=O)N[C@@H](CC(C)C)C(=O)N[C@@H](CCCNC(=N)N)C(=O)N[C@@H](CC(N)=O)C(=O)N[C@@H](CC(C)C)C(=O)N[C@H](C(=O)O)C(C)C", "Unstable"),
    ("CC[C@H](C)[C@H](NC(=O)[C@H](CCCNC(=N)N)NC(=O)[C@H](CCC(N)=O)NC(=O)[C@@H](NC(=O)[C@@H](NC(=O)[C@H](CCCNC(=N)N)NC(=O)[C@H](CCCCN)NC(=O)[C@H](Cc1ccccc1)NC(=O)[C@H](CCC(=O)O)NC(C)=O)[C@@H](C)CC)C(C)C)C(=O)N[C@@H](CCCCN)C(=O)N[C@@H](CC(=O)O)C(=O)N[C@@H](Cc1ccccc1)C(=O)N[C@@H](CC(C)C)C(=O)N[C@@H](CCCNC(=N)N)C(=O)N[C@@H](CC(N)=O)C(=O)N[C@@H](CC(C)C)C(=O)N[C@H](C(N)=O)C(C)C", "Unstable"),
]

---

Please go through the items and note down their MIC.
# System: Staphylococcus aureus
# experimental.protocol: Antimicrobial activity against Staphylococcus aureus FDA 486 after 21 hrs by broth microdilution method
# Assay type: functional
# condition.summary: FDA 486, 21 h
One number for each entry, in µM.

Give MIC for all molecules that follow.
1. CC[C@H](C)[C@H](NC(=O)[C@H](CCCNC(=N)N)NC(=O)[C@H](CCC(N)=O)NC(=O)[C@@H](NC(=O)[C@@H](NC(=O)[C@H](CCCNC(=N)N)NC(=O)[C@H](CCCCN)NC(=O)[C@H](Cc1ccccc1)NC(=O)[C@@H](N)CCC(=O)O)[C@@H](C)CC)C(C)C)C(=O)N[C@@H](CCCCN)C(=O)N[C@@H](CC(=O)O)C(=O)N[C@@H](Cc1ccccc1)C(=O)N[C@@H](CC(C)C)C(=O)N[C@@H](CCCNC(=N)N)C(=O)N[C@@H](CC(N)=O)C(=O)N[C@@H](CC(C)C)C(=O)N[C@H](C(=O)O)C(C)C
2. CC[C@H](C)[C@H](NC(=O)[C@H](CCCNC(=N)N)NC(=O)[C@H](CCC(N)=O)NC(=O)[C@@H](NC(=O)[C@@H](NC(=O)[C@H](CCCNC(=N)N)NC(=O)[C@H](CCCCN)NC(=O)[C@H](Cc1ccccc1)NC(=O)[C@H](CCC(=O)O)NC(C)=O)[C@@H](C)CC)C(C)C)C(=O)N[C@@H](CCCCN)C(=O)N[C@@H](CC(=O)O)C(=O)N[C@@H](Cc1ccccc1)C(=O)N[C@@H](CC(C)C)C(=O)N[C@@H](CCCNC(=N)N)C(=O)N[C@@H](CC(N)=O)C(=O)N[C@@H](CC(C)C)C(=O)N[C@H](C(N)=O)C(C)C

1: 40; 2: 5
